All figures here come from PubChem BioAssay (NCI).

# Test system: UO-31 renal
# Run description: NCI tumour cell line growth inhibition, 48 h
Assign TGI to each entry below.

Return value of TGI for input `O=C1CC(=O)N(CCc2ccccc2)S(=O)(=O)N1CCc1ccccc1` , no commentary.
40.5 µM

Please report the measured TGI for `COc1ccc(-c2ccc(/C=N/n3c(C)nn(CN4CCN(C)CC4)c3=S)o2)c([N+](=O)[O-])c1`
> 100 µM

Report TGI, nothing else, for this compound: `Cc1c2c(n(CCN(C)C)c1C)NN=C(C#N)S2(=O)=O`
> 100 µM

Please report the measured TGI for `COc1cc(N(CCC#N)CCC#N)ccc1/C(N=Nc1ccccc1)=N/NC(=O)c1cc(Br)ccc1O`
57.5 µM

Name the recorded TGI of the item `O=C(NCCCCCCCCNC(=O)c1cccc2ccccc12)c1cccc2ccccc12` in your answer.
27.4 µM

Respond only with TGI recorded for Nc1nc(Cl)c2nnn(CC3CCC(CO)C3)c2n1 (stereo not given)
> 100 µM

Return TGI (reported value) for this compound: `CC(C)C(/C=C/c1ccc(Br)cc1)=N\NC(N)=O`
66.6 µM

Note down TGI recorded for CNC1C(O)C(OC2C(N)CC(N)C(OC3OC(C(C)O)C(O)C(O)C3N)C2O)OCC1(C)O (stereo not given)
> 100 µM

Give the reported value of TGI for this record: `O=[N+]([O-])/C(C(Cl)=C(Cl)Cl)=C(/Sc1ccccc1)N1CCCCC1`
> 100 µM

Please indicate TGI recorded for `O=[N+]([O-])c1ccc2ncccc2c1Cl`
> 100 µM

Give the measured TGI for CCC[CH2][Sn]([CH2]CCC)([O]C(=O)C1CCC(=O)N1)[O]C(=O)C1CCC(=O)N1 (stereo not given)
1.98 µM

Identify measured TGI corresponding to `COc1ccc(-c2cc(-c3cc(OC)c(OC)c(OC)c3)c(C#N)c(N3CCOCC3)n2)cc1O`
> 100 µM

Please look at this compound and report its TGI: `CC(=O)[O-].O=C([CH-]C(=O)c1ccccc1)c1ccccc1.O=C([CH-]C(=O)c1ccccc1)c1ccccc1.[Y+3]`
9.66 µM

Consider the compound `COc1cc(/C=C2/C(=O)N(C(=O)c3ccc(Cl)cc3)N=C2C)cc(OC)c1OC` and give its recorded TGI.
> 100 µM

Name the recorded TGI of the compound listed here: `NC(=Nc1ccc(O)cc1)S(=O)O`
> 100 µM

Using the record for `N#CCCN(CCN(C(=O)Nc1ccccc1)c1ccccc1)C(=O)Nc1ccccc1` , state its measured TGI.
> 100 µM

Tell us which TGI value is on record for `c1ccc(-c2nnc(-c3nsc4ccccc34)o2)cc1`
> 100 µM

State, in one line, measured TGI of `CC1=C(c2cc(C(=O)Nc3cccc(C(F)(F)F)c3)ncn2)Sc2ccccc2N1`
> 100 µM

Look up and report measured TGI for this entry: `CCC(C(=O)[O-])C(=O)[O-].CCC(C(=O)[O-])C(=O)[O-].N.N.NCCCCCCN.[Pt+4].[Pt+4]`
13.6 µM

Output TGI of [N-]=[N+]=NC(CBr)c1cn([C@H]2C[C@H](O)[C@@H](CO)O2)c(=O)[nH]c1=O (stereo not given in full)
> 100 µM

----------
# Tested on: HS 578T breast
# Run description: NCI tumour cell line growth inhibition, 48 h
Readout name: TGI

Lab note: HS 578T breast assay, enter TGI for CC(C)C1OC(/C=C/c2ccccc2)OCC1(C)C (stereo unspecified) here
88.7 µM

Identify measured TGI obtained with HS 578T breast for `COc1cc(N(CCC#N)CCC#N)ccc1/C(N=Nc1ccccc1)=N/NC(=O)c1cc(Br)ccc1O` .
> 100 µM

Answer briefly: TGI recorded on HS 578T breast for `CCCCC#CC#Cc1cccc(=O)o1`
51.6 µM

Quote HS 578T breast TGI for entry C=CC(C)CCC(C/C=C(\C)CCC=C(C)C)C(=C)CCCC(C)C (stereo unspecified) .
> 100 µM

Jot down TGI (HS 578T breast) of `Cc1ccsc1/C=N/Nc1nncc2ccccc12` .
> 100 µM

Look up HS 578T breast data: TGI of COc1cccc(CC2Cc3ccccc3CC(=O)N2)c1 (stereo unspecified) , then report it.
68.2 µM

Provide HS 578T breast TGI reading for NC(=O)c1[nH]cnc1/N=N/SCC(N)C(=O)O (stereo unspecified) .
> 100 µM

Under HS 578T breast, report TGI for CCC1CCc2nc3sc(C(=O)Nc4ccccc4C)c(N)c3cc2C1 (stereo unspecified)
> 100 µM

Look up HS 578T breast data: TGI of `N[C@@H]1CCCN(c2c(/C=C3\SC(=O)NC3=O)cccc2-c2ccccc2)C1` , then report it.
64 µM

Provide TGI, recorded with HS 578T breast, of `COc1cnc2c(c1)C(=O)c1c-2n(CCCN2CCCC2)c(=O)c2cc(F)ccc12`
13.5 µM

Report TGI on HS 578T breast for this entry: `CCOC(=O)c1cc2c(n1Cc1ccccc1)-c1oncc1CC2`
17.5 µM

----------
# System: SNB-19 CNS
# Run description: NCI tumour cell line growth inhibition, 48 h
Assign class by TGI: not lower than 60 µM means yes; lower than 60 µM means no.

Identify whether the reported TGI of the following compound is 60 µM or greater: `CC(=O)[O-].O=C([CH-]C(=O)c1ccccc1)c1ccccc1.O=C([CH-]C(=O)c1ccccc1)c1ccccc1.[Y+3]`
yes

Check the entry `C#Cc1cccc(Nc2nc3ccc([N+](=O)[O-])cc3nc2Nc2cccc(C#C)c2)c1` : does TGI equal or exceed 60 µM?
no

Please tell me: is the compound `CC(=O)[O][Hg][c]1ccccc1` at or over 60 µM in terms of TGI?
no

hey, is TGI for this one >= 60 µM? `CN(CCCNC(=O)c1nn(-c2ccc(Cl)cc2Cl)c2c1ccc1ccccc12)CCCNC(=O)c1nn(-c2ccc(Cl)cc2Cl)c2c1ccc1ccccc12`
no

Exam item: decide whether the reported TGI for `COC1=Nc2ccccc2S(=O)(=O)C=C1` is at least 60 µM.
no

I'd appreciate it if you could say whether `C#CCOc1cccc(Nc2ncnc3ccc(NC(=O)CCl)cc23)c1` has TGI at least equal to 60 µM.
yes

State whether the measured TGI reaches 60 µM, counting equality as reaching it, for `O=C1CC(=O)N(CCc2ccccc2)S(=O)(=O)N1CCc1ccccc1`
yes

hey, is TGI for this one >= 60 µM? `COc1ccccc1S(=O)(=O)Nc1ccc2c(c1)CN(C)C(=O)N2`
yes

Decide: TGI of `Cc1c(C)c(S(=O)(=O)N(CCCN)OCCCN)c(C)c2c1OC(C)(C)C2` >= 60 µM?
yes

Check if TGI >= 60 µM (inclusive). Item: COc1cccc(C2C3=C(COC3=O)Oc3cc4c(cc32)OCO4)c1 (stereo not given)
yes

Quick check: does `Cc1ccc(O)c(C(=O)CCCC(=O)c2cc(C)ccc2O)c1` have TGI greater than or equal to 60 µM?
yes

Form field: TGI at least 60 µM? Entry: `O=C(c1ccccc1)c1sc2c(=O)c(C(=O)c3ccccc3)c(C(=O)c3ccccc3)sc2c(=O)c1C(=O)c1ccccc1`
yes

Check if TGI >= 60 µM (inclusive). Item: O=C(O)C1(Cc2cccc(Nc3nccs3)n2)CCC(Oc2cccc(Cl)c2F)CC1 (stereo not given)
yes

# bool: TGI of `O=C(NC(Nc1ccc(F)c(Cl)c1)(C(F)(F)F)C(F)(F)F)OCc1ccccc1` >= 60 µM
no

Has C[C@H]1C(Oc2ccc(O)cc2)OC2OC3(C)CCC4[C@H](C)CCC1C24OO3 (stereo not given in full) a recorded TGI greater than or equal to 60 µM?
no

Could you tell me if the measured TGI of c1ccc(COCC2OC3c4ccccc4COC3C2OCc2ccccc2)cc1 (stereo not given) reaches 60 µM or more?
yes

# check: TGI of COC(=O)C(Cc1nc2ccc(Cl)cc2[nH]c1=O)/C(=N/NC(N)=O)C(=O)Nc1ccc(Cl)cc1 (stereo not given) is greater than or equal to 60 µM
yes

Could you tell me if the measured TGI of `CCOC(=O)c1ccc(-n2c(SCC)nc3sc(C)c(C)c3c2=O)cc1` reaches 60 µM or more?
yes

For this compound, is measured TGI 60 µM or higher? `Cc1ccc(C)c(NC(=O)CCc2nc(=S)[nH][nH]2)c1`
yes

Threshold query (TGI >= 60 µM) on `Cc1c2c(n(CCN(C)C)c1C)NN=C(C#N)S2(=O)=O`
yes

----------
Kindly state TGI for each of the entries shown.
# Tested on: HCC-2998 colon
# Run description: NCI tumour cell line growth inhibition, 48 h

Please give measured TGI of the following entry: `O=C(c1cccc(C(=O)c2ccc3c4c(cccc24)C(=O)N(c2ccccc2)C3=O)c1)c1ccc2c3c(cccc13)C(=O)N(c1ccccc1)C2=O`
> 100 µM

Using the record for `C=C1C(=O)O[C@H]2[C@H]1CC(=O)/C(C)=C/CC[C@@]1(C)O[C@@H]21` , state its measured TGI.
6.02 µM

Quote TGI reported for CC(C)C1OC(/C=C/c2ccccc2)OCC1(C)C (stereo unspecified) please.
38.5 µM

Answer with reported TGI of Nc1nc(N)c2nc(CNc3ccc(C(=O)NC(CCCNC(=O)c4ccccc4C(=O)O)C(=O)O)cc3)cnc2n1 (stereo unspecified)
> 100 µM

Please report TGI for the following molecule: `O=C(CCN1CCOCC1)Nc1ccc2sc3ccccc3c(=O)c2n1`
> 100 µM

Identify the reported TGI for the following entry. `COc1ccc(/C=C2\N=C(NN)N=C2Cl)cc1`
> 100 µM

Give the reported value of TGI for this record: `Cc1ccc2[nH]c3c(ncc4[nH]c5ccccc5c43)c2c1`
30.2 µM

Look up and report measured TGI for this entry: CCC1CCc2nc3sc(C(=O)Nc4ccccc4C)c(N)c3cc2C1 (stereo unspecified)
> 100 µM

Give me measured TGI, please, for this molecule: `Cc1cc(C)c(S(=O)(=O)ONC(=O)OC(C)(C)C)c(C)c1`
> 100 µM

Identify the reported TGI for the following entry. CCOC(=O)C1=C(C)N(NC(N)=O)C2(O)CCCC(=O)C12C (stereo unspecified)
> 100 µM

In one line, give reported TGI of the entry `CSc1nc2[nH]c(=O)c(C)nc2c(=O)[nH]1` .
> 100 µM

For `NCCN1CC2CCC(CC2)C1` , write its TGI.
> 10 µM

State, in one line, measured TGI of `CN(C)c1ccc(/C=N\N2C(=O)c3ccccc3C2=O)cc1`
> 100 µM

Determine from records and report TGI for `CCC(C(=O)[O-])C(=O)[O-].CCC(C(=O)[O-])C(=O)[O-].N.N.NCCCCCCN.[Pt+4].[Pt+4]`
15.8 µM

Respond only with TGI recorded for N#CC1(C=O)c2ccccc2C=CN1C(=O)c1ccccc1 (stereo unspecified)
> 100 µM

Query TGI for `N#Cc1ccc(C(c2ccc(C#N)cc2)n2cncn2)cc1`
> 5000 µM
